EXPERIMENT NOTES: Pharmacokinetics in CD-1 mice
Format: in vivo
SETUP CONDITIONS: CD-1, mouse, plasma, iv, 50 mg/kg, single intravenous dose 50 mg/kg, mice sets 1-3 and mean ± S.D., read-out: Cl (plasma clearance) (converted)
READOUT NAME: clearance (mL/min/kg)
Give just the number in mL/min/kg; leave the unit off.

Task: Please give the measured clearance for this compound: CCC(=O)NC(CC(C)C(Cl)(Cl)Cl)C(=O)N1C(=O)C=C(OC)C1CC(C)C(Cl)Cl (stereo not shown) [SINT1, Sintokamide A]
Output: 366

====

TGT: AR (Homo sapiens, UniProt P10275, T878A)
Construct: endogenous in cells; host or cells: LNCaP
Sequence (P10275 whole entry T878A): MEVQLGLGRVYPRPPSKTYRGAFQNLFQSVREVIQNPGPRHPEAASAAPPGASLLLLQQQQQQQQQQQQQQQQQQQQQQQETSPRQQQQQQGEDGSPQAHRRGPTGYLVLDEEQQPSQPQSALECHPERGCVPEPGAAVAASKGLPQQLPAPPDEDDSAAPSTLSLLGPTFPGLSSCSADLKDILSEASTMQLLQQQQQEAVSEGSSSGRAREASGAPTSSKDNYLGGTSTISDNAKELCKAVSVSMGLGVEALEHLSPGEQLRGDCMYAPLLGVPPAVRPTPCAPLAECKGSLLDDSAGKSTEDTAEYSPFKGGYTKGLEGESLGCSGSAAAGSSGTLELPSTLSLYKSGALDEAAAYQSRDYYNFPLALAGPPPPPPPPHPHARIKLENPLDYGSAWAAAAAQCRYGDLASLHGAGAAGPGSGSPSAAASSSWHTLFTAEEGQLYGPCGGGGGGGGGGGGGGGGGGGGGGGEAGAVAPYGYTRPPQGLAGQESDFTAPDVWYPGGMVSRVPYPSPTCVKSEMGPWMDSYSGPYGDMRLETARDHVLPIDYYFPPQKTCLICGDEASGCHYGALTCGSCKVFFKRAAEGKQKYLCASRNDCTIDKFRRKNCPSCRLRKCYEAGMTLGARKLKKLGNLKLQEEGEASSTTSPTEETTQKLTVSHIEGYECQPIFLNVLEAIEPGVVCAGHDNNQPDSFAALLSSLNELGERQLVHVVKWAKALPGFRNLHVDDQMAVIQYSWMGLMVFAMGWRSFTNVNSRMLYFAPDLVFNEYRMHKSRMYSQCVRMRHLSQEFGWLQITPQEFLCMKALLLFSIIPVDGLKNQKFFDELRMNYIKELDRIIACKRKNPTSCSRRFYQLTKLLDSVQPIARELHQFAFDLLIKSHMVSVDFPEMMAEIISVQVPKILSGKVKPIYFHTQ
EXPERIMENT NOTES: AR-responsive luciferase reporters (PSA (6.1 kb), PB, ARR3) in LNCaP cells, SINT1 and EPI-002 alone or combined
Type: cell-based
SETUP CONDITIONS: IC50, ARR3-Luc, 1 nM R1881 48 h
READOUT NAME: pIC50
pIC50 (log units): -log10 of the concentration in mol/L.

Task: Please give the measured pIC50 for this compound: CCC(=O)NC(CC(C)C(Cl)(Cl)Cl)C(=O)N1C(=O)C=C(OC)C1CC(C)C(Cl)Cl (stereo not shown) [SINT1, Sintokamide A]
Output: 4.88
